Item-by-item account of Percent Effect
Test system: Trypanosoma cruzi
test_method_notes: Trypanosoma cruzi phosphomannomutase and mannose-1-phosphate guanylyltransferase assay
Type: functional
Set-up: scale not given: direction of the effect not stated beside the values
study_conditions: 10 µM
Return type: number; implicit unit %.

Prompt: I'd like to know its Percent Effect. The compound in question is CCOc1ccc(CN(C)C(=O)NC(C)c2nncn2C)cc1 (centres undefined)
Response: 0.0972

Prompt: Give its Percent Effect value. Item: CCc1cnc(N2CCC(=O)N(CC3CC3)C(C(C)C)C2)nc1 (centres undefined)
Response: -0.965

Prompt: Value lookup for Percent Effect; key = Cc1nc(N2CCN(C)CC2)ncc1C(=O)N1CC(C)(C)C(C)(O)C1 (centres undefined)
Response: -9.09

Prompt: What value of Percent Effect has been recorded for this entry: CNS(=O)(=O)c1cccc(CNc2nccc(C(F)(F)F)n2)c1
Response: 5.19

New cases:
Prompt: Percent Effect lookup needed for O=C(CN1CCC(C(=O)c2cc(F)ccc2F)CC1)NC1CCCC1 , thanks.
Response: -1.46

Prompt: Item Cc1ccc(OCC(=O)NS(=O)(=O)c2cccnc2)cc1C has what recorded Percent Effect?
Response: -7.52

Prompt: GET /values?readout=Percent Effect&item= CCn1nc(CNC(=O)C2CC(=O)N(C3CCCC3)C2)c2ccccc21 (centres undefined)
Response: -1.74

Prompt: State the recorded Percent Effect for this entry: O=C(NC1CCS(=O)(=O)C1)c1sccc1-c1ccc(F)cc1 (centres undefined)
Response: -4.4

Prompt: For CC(N(C)Cc1nc2c(cnn2C)c(=O)[nH]1)C(C)(C)C (centres undefined) , what is its reported Percent Effect?
Response: -10.1

====

assay_system: AMP-activated protein kinase, AMPK (Homo sapiens) (UniProt P54646+O43741+P54619+Q9UGJ0+Q9Y478+Q13131+Q9UGI9)
test_method_notes: AMP-dependent Kinase enzyme assay. An in vitro enzyme assay that detects ADP turnover that is directly proportional to AMPK activity. This uses naive AMPK that is activated during the assay with MK-8722
Type: functional
Set-up: scale not given: direction of the effect not stated beside the values
study_conditions: 30 µM
parameter: Percent Effect (%)
// note: answer is a bare numeric in %

// solved cases for Percent Effect follow
Prompt: Returns the measured Percent Effect for the input molecule. Input: CCC1CN(CC(=O)N2CCC2)CCN1CCOC (configuration not stated)
Response: -12.7

Prompt: Record request: Percent Effect value, item CCN(CC1CCOC1)C(=O)c1ccccc1N1CCOCC1 (configuration not stated)
Response: -4.13

Prompt: Name the recorded Percent Effect for O=C(CCc1nccs1)N1CCCC(N2CCNC2=O)C1 (configuration not stated) .
Response: 5.41

Prompt: Quick check: Percent Effect of COc1cc(CNC2CCCc3c2cnn3C)cc(OC)c1 (configuration not stated) ?
Response: 139

Prompt: For the molecule CC(C)c1nnc2n1CCN(C(=O)CN1CCc3sccc3C1)C2 , what Percent Effect is on record?
Response: -8.35

---
Prompt: Data request, read-out Percent Effect, for NC(=O)CN1CCCN(C(=O)c2ccn(-c3cccc(F)c3)n2)CC1
Response: -1.98

Prompt: // Percent Effect lookup, key: CC(C)c1cc(NC(=O)c2ccc(NC3CC3)nc2)[nH]n1
Response: 111

====

Here, each record is paired with measured Percent Effect data.
assay_system: Protein translocase subunit SecA (Escherichia coli (strain K12))
test_method_notes: Assay to Identify E. coli SecA ATPase Inhibitors
Assay type: functional
Parameters: scale not given: direction of the effect not stated beside the values
study_conditions: 30 µM
Measured potencies and affinities stand elsewhere.
Just so you know, I need the unit written after the number.

Prompt: Query (molecule): Cc1cccc(NC(=O)Cn2ncc(SCC(N)=O)c(Cl)c2=O)c1C ; field requested: Percent Effect
Response: -3.9%

Further cases:
Prompt: Dear colleague, I am looking for the recorded Percent Effect of the following molecule: O=C1[C@H]2CC[C@H](CN(S(=O)(=O)c3ccccc3)C2)N1Cc1cscn1
Response: -9.05%

Prompt: Which Percent Effect is reported for this molecule? Cc1nc(C)n(CC2CCCN(Cc3cccc(C#N)c3)C2)n1 (stereo not drawn)
Response: -3.63%

====

assay_system: Arginase-2, mitochondrial (Homo sapiens)
test_method_notes: in vitro enzyme assay to detect the production of urea directly proportional to the activity of Arginase II; further: in the data most compounds retested in dose-response had high values
Type: functional
Parameters: scale not given: direction of the effect not stated beside the values
study_conditions: 33.3 µM
parameter: Percent Effect (%)
# unit: % | format: bare number

Prompt: Look up Percent Effect: Cc1c(C)n(-c2ccccn2)c2nc3c(c(N)c12)CCCC3
Response: -10

Prompt: Please give the measured Percent Effect for this compound: COc1cc(CNC2CCc3nc(C(C)C)nn3C2)cc2c1OCO2 (stereo not drawn)
Response: 3.24

Prompt: // lookup Percent Effect for CCc1nc(CN(C)C2CCN(CCn3cc(C#N)cn3)C2)no1 (stereo not drawn)
Response: -13.6

Prompt: Which Percent Effect is listed for Cc1nccn1CC1CCCN1S(=O)(=O)Cc1ccccc1 (stereo not drawn) ?
Response: 1.9

Prompt: Recorded Percent Effect of Cc1cc2cc(C(=O)N[C@@H]3CC[C@@H](N4CCOCC4)[C@@H]3O)ccc2o1 , please.
Response: -0.232

Prompt: Record request: Percent Effect value, item CCn1cnnc1C1CCN(C(=O)c2ccc(C(=O)OC)s2)CC1
Response: -0.356

Prompt: Find the recorded Percent Effect belonging to Cc1ccc(C)c(C(NC(=O)C(C)(C)C)c2cccnc2)c1 (stereo not drawn) and report it.
Response: -0.645

Prompt: So what does the record say about Percent Effect for CNC(=O)c1cc2c(nc1N(C)C)CCN(S(=O)(=O)CC(C)C)CC2 ?
Response: -5.81

Prompt: Would you kindly share the measured Percent Effect for Cc1nccn1C1CCCN(C(=O)c2ccc3c(c2)nnn3C)C1 (stereo not drawn) ?
Response: 5.75

Prompt: Requested read-out: Percent Effect. Entry: Cn1cnnc1C1CCCN(C(=O)NCc2ccc3c(c2)OCO3)C1 (stereo not drawn)
Response: -12.8

Prompt: Record request: Percent Effect value, item CCn1cc(NC(=O)NCC(O)c2ccccc2)cn1 (stereo not drawn)
Response: 1.52

Prompt: Please report the recorded Percent Effect for Cc1csc(N2CCN(C(=O)CCn3cncn3)CC2)n1 .
Response: 4.18

Prompt: Recorded Percent Effect of Cc1nccn1-c1cc(CNC(=O)C(C)(C)C)ccn1 , please.
Response: 34.1

Prompt: Which Percent Effect value belongs to O=C(Nc1cccc(CN2CCOC2=O)c1)N1CCSCC1 ?
Response: 3.09

Prompt: What value of Percent Effect has been recorded for this entry: CC(NC(=O)C1=NN(C)C(=O)CC1)c1ccc(F)cc1F (stereo not drawn)
Response: -4.09

====

assay_system: Proteasome subunit beta (Trypanosoma cruzi)
test_method_notes: Trypanosoma cruzi proteasome chymotrypsin-like activity (TcProtChymo) assay. Further: in the data most compounds retested in dose-response had high values.
Assay type: functional
Parameters: scale not given: direction of the effect not stated beside the values
study_conditions: 9.37 µM
Below: a set of entries, each annotated with reported Percent Effect.
Report only the number, with the unit % understood.

Prompt: Look up Percent Effect with Proteasome subunit beta (Trypanosoma cruzi) for this compound: Cc1nc(CNC(C)c2ccc(OCC(=O)NC3CC3)cc2)cs1 (centres undefined)
Response: 23.8

Prompt: Form entry - test system: Proteasome subunit beta (Trypanosoma cruzi); read-out: Percent Effect; compound: CCC1=N[C@@]2(CC[C@@H]3CN(C(=O)NCC(C)C)C[C@@H]32)C(=O)N1CC(C)C
Response: 12.8

Prompt: Proteasome subunit beta (Trypanosoma cruzi) / Percent Effect / COCCN(Cc1ccc(F)cc1Cl)C(=O)c1ccncc1 : value?
Response: 5.09

Prompt: Give Percent Effect (Proteasome subunit beta (Trypanosoma cruzi)) of the following compound: Cc1cc(CN2CC[C@H]3C(=O)N(c4ccccc4)CCO[C@H]3C2)no1
Response: 8.37

====

Reported Percent Effect values for the following compounds.
System: Trypanosoma cruzi
test_method_notes: Trypanosoma cruzi phosphomannomutase and mannose-1-phosphate guanylyltransferase assay
Type: functional
Set-up: scale not given: direction of the effect not stated beside the values
study_conditions: 10 µM
Quick reminder: number only, in %, skip the unit.

Prompt: Entry Cc1noc2nc(C3CCN(Cc4cccnc4)CC3)cc(C(F)F)c12 has what Percent Effect?
Response: -6.32

Prompt: # Percent Effect lookup, item O=C(NCC1OCCc2cn(CC3CC3)nc21)c1ccsc1 (centres undefined)
Response: 3.65

Prompt: Which Percent Effect value belongs to CCn1nccc1CNC(=O)NC1CCCCC1 ?
Response: -7.18

Further cases:
Prompt: What value of Percent Effect has been recorded for this entry: CC(C)n1ccnc1C1CCCN(c2ccccn2)C1 (centres undefined)
Response: -2.43

====

Listing of recorded Percent Effect by entry.
assay_system: Ubiquitin-activating enzyme e1, putative (Leishmania donovani (strain BPK282A1)) (UniProt E9BSI1)
Sequence (E9BSI1 as listed by the source): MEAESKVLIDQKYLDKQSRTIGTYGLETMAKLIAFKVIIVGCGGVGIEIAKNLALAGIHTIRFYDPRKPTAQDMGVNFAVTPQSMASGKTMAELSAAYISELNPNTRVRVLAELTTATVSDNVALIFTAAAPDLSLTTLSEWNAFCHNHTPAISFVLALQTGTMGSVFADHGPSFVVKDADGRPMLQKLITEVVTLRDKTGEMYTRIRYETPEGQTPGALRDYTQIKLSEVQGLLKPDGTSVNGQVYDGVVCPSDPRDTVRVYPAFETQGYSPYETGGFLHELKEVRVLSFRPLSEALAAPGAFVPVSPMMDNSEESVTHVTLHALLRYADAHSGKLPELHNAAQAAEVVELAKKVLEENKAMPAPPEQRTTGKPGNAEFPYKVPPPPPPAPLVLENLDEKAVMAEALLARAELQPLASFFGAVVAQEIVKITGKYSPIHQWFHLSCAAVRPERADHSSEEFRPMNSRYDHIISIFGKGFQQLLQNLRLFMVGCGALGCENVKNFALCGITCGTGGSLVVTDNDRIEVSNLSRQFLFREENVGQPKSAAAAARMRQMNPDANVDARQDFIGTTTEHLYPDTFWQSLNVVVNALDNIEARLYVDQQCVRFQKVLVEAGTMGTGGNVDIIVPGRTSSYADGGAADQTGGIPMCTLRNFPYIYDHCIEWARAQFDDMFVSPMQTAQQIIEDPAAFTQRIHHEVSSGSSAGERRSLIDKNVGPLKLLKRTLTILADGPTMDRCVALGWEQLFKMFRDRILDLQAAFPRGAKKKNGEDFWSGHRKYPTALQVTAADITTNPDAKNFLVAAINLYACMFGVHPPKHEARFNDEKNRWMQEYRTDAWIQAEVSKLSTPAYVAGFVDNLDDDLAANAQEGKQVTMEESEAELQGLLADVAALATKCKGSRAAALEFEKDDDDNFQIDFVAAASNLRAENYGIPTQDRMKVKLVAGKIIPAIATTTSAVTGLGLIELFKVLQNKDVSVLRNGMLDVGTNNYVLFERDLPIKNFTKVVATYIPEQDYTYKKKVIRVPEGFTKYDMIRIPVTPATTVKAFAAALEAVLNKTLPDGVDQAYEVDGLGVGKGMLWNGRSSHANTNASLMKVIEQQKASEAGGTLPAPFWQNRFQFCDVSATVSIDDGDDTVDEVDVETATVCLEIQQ
test_method_notes: Leishmania donovani Ubiquitin Activating Enzyme (LdE1)
Format: functional
Parameters: scale not given: direction of the effect not stated beside the values
study_conditions: 30 µM
Measured potencies and affinities stand elsewhere.
Only the number, expressed in %, is required.

Some compounds with recorded Percent Effect:
Prompt: Request the reported Percent Effect associated with COc1ncccc1NC(=O)N1CCC(CN2CCOCC2)CC1
Response: 2.67

Prompt: I am curious: what Percent Effect value has been reported for c1sc(C2CCCC2)nc1CN1CCn2c(nnc2C2CC2)C1 ?
Response: 5.41

Prompt: Param item = CCOCC1CN(Cc2ccoc2)Cc2ncn(CC3CC3)c21 (stereo unspecified) ; retrieve measured Percent Effect.
Response: -2.7

Prompt: Can you look up the measured Percent Effect of COCCN1CC[C@@H]2OC[C@H](C(=O)NCc3cccs3)C[C@@H]2C1 for me?
Response: 13.5

Prompt: # get_value(readout='Percent Effect', item= COCc1noc(C2(c3ccc(F)cc3)CCOCC2)n1 )
Response: 8.11

Prompt: # input compound: O=C(NC1=NCCCN1c1ccc(Cl)cc1)c1cccc(Cl)c1 ; wanted: its Percent Effect
Response: -5.2

Prompt: Recorded Percent Effect of Cc1ccccc1-c1cc(C(=O)N2CCn3c(C)nnc3C2)[nH]n1 , please.
Response: 10.5

Prompt: Which Percent Effect is listed for Cc1nn(C)c2sc(C(=O)N3CCCC(n4ccnc4C)C3)cc12 (stereo unspecified) ?
Response: 7.89

Here is another compound to look at.
Prompt: Give the measured Percent Effect of CCOCCCC(=O)NCc1cn2cc(Br)ccc2n1 .
Response: 7.89

These data points were gathered from ChEMBL document CHEMBL3988442.
